# Tested on: MV4-11
# test-name: CellTox Green cytotoxicity fluorescence relative to DMSO vehicle (fold of vehicle RFU); higher = more cell death (loss of membrane integrity), active = 2 or more
# test-settings: 1 µM; 48 h
Returns: one label drawn from 1 (yes) = active, 0 (no) = inactive

Hey, what did the test say about "C=CC(=O)N1CC(=Cc2ccc([N+](=O)[O-])cc2)C(=O)C(=Cc2ccc([N+](=O)[O-])cc2)C1" ? 1 (yes)

Hey, what did the test say about "CCCCNc1ncc2c(-c3ccc(CN4CCN(C)CC4)cc3)cn([C@H]3CC[C@H](O)CC3)c2n1" ? 0 (no)

Hey, what did the test say about "NS(=O)(=O)C#Cc1ccccc1" ? 0 (no)

Hey, what did the test say about "CC(C)[C@H](CO)Nc1nc(Nc2cccc(Cl)c2)c2ncn(C(C)C)c2n1" ? 0 (no)

Hey, what did the test say about "CN(C)CC[C@H](CSc1ccccc1)Nc1ccc(S(=O)(=O)NC(=O)c2ccc(N3CCN(Cc4ccccc4-c4ccc(Cl)cc4)CC3)cc2)cc1[N+](=O)[O-]" ? 1 (yes)

Hey, what did the test say about "CCS(=O)(=O)N1CCN(c2ccc(Nc3ncc(C(N)=O)c(NC4CC4)n3)cc2)CC1" ? 0 (no)

Hey, what did the test say about O=C(COc1ccc(Cl)cc1)NC1CCC(NC(=O)COc2ccc(Cl)cc2)CC1 (stereo not drawn) ? 0 (no)

Hey, what did the test say about "c1ccc2c(CCNc3ccc(Nc4ccncc4)cc3)c[nH]c2c1" ? 1 (yes)

Hey, what did the test say about "N#Cc1ccc(-c2c(-c3ncn[nH]3)sc(N3CCOCC3)c2C#N)c(F)c1" ? 0 (no)

Hey, what did the test say about "CN[C@@H](C)C(=O)N[C@H](C(=O)N1CCC[C@H]1C(=O)Nc1snnc1-c1ccccc1)C1CCCCC1" ? 0 (no)

Hey, what did the test say about "Cc1nn(C)c(COc2ccc(N3CCN(S(=O)(=O)N(C)C)CC3)cc2)c1-c1cccc2c(CCCOc3cccc4ccccc34)c(C(=O)O)n(CCN3CCOCC3)c12" ? 0 (no)

Hey, what did the test say about "CCCCCCCCCCCC1=C(O)C(=O)C=C(O)C1=O" ? 0 (no)

Hey, what did the test say about CC(C)CC(NC(=O)C(Cc1ccccc1)CC(O)C(Cc1ccccc1)NC(=O)OC(C)(C)C)C(=O)NC(Cc1ccccc1)C(N)=O (stereo not drawn) ? 0 (no)

Hey, what did the test say about "CN(C)CCCCC(=O)Nc1ccc(NC(=S)NC(=O)c2ccc(C(C)(C)C)cc2)cc1" ? 0 (no)

Hey, what did the test say about O=C1CCC(N2C(=O)c3ccccc3C2=O)C(=O)N1 (stereo not drawn) [Thalidomide] ? 0 (no)

Hey, what did the test say about "CC(=O)N1c2ccc(-c3ccc(C(=O)O)cc3)cc2[C@H](Nc2ccc(Cl)cc2)C[C@@H]1C" ? 0 (no)

Hey, what did the test say about "Nc1nc(F)nc2c1ncn2[C@@H]1O[C@H](CO)[C@@H](O)[C@@H]1O" ? 0 (no)

Hey, what did the test say about "O=C(O)CSc1cc(NS(=O)(=O)c2ccc(Br)cc2)c2ccccc2c1O" ? 0 (no)

Hey, what did the test say about "C=CC(=O)N1CCC(Oc2cc3c(Nc4ccc(Cl)c(Cl)c4F)ncnc3cc2OC)CC1" ? 0 (no)

Hey, what did the test say about "N#CC(=Cc1ccc(-c2cc(Cl)ccc2Cl)o1)C(=O)Nc1cccc2ncccc12" ? 0 (no)

Hey, what did the test say about "CC(C)(C)C[C@@H]1N[C@@H](C(=O)N[C@H]2CC[C@H](O)CC2)[C@H](c2cccc(Cl)c2F)[C@]12C(=O)Nc1cc(Cl)ccc12" ? 1 (yes)

Hey, what did the test say about "CC(C)c1ccccc1Cc1cc(C(=O)Nc2ccc(S(=O)(=O)c3ccccc3C(C)(C)C)cc2)c(O)c(O)c1O" ? 0 (no)

Hey, what did the test say about "CC(=NNC(=S)N1CCC1)c1ccccn1" ? 0 (no)

Hey, what did the test say about "C/C(=N\NC(=O)c1cccc(S(=O)(=O)N2CCOCC2)c1)c1cc(Cl)ccc1O" ? 0 (no)

Hey, what did the test say about "CC1(C)CCC(c2ccc(Cl)cc2)=C(CN2CCN(c3ccc(C(=O)NS(=O)(=O)c4ccc(N[C@H](CCN5CCOCC5)CSc5ccccc5)c(S(=O)(=O)C(F)(F)F)c4)cc3)CC2)C1" ? 1 (yes)

Hey, what did the test say about Nc1cccc2c1C(=O)N(C1CCC(=O)NC1=O)C2=O (stereo not drawn) [Pomalidomide] ? 0 (no)

Hey, what did the test say about "Fc1ccc(CNc2ncnc3ccc(F)cc23)cc1" ? 0 (no)

Hey, what did the test say about "CC1(C)CC[C@]2(NC(=O)C(C)(F)F)CC[C@]3(C)[C@H](C(=O)C=C4[C@@]5(C)C=C(C#N)C(=O)C(C)(C)[C@@H]5CC[C@]43C)[C@@H]2C1" ? 1 (yes)

Hey, what did the test say about "COc1ccc(C2=N[C@@H](c3ccc(Cl)cc3)[C@@H](c3ccc(Cl)cc3)N2C(=O)N2CCNC(=O)C2)c(OC(C)C)c1" ? 0 (no)

Hey, what did the test say about "FC(F)(F)c1ccc(CNc2ccc(Cc3c[nH]c4ncc(Cl)cc34)cn2)cn1" ? 0 (no)

Hey, what did the test say about "CCN(CC)CCNC(=O)c1c(C)[nH]c(/C=C2\C(=O)Nc3ccc(F)cc32)c1C" ? 0 (no)

Hey, what did the test say about "COc1cccc(-n2c(=O)[nH]c3cc(Cl)n(-c4ccc(-c5cccc(OC)c5O)cc4)c3c2=O)c1" ? 0 (no)

Hey, what did the test say about "CNC(=O)c1ccccc1Nc1cc(Nc2ccc(N3CCOCC3)cc2OC)ncc1C(F)(F)F" ? 0 (no)

###

# System: Kasumi-1
# test-name: CellTox Green cytotoxicity fluorescence relative to DMSO vehicle (fold of vehicle RFU); higher = more cell death (loss of membrane integrity), active = 2 or more
# test-settings: 0.1 µM; 48 h
Label Condition met when CellTox Green cytotoxicity fluorescence is at or above 1; otherwise label Condition not met.

Record "CCOc1cc(C(C)(C)C)ccc1C1=N[C@@](C)(c2ccc(Cl)cc2)[C@@](C)(c2ccc(Cl)cc2)N1C(=O)N1CCN(CCCS(C)(=O)=O)CC1" ; criterion: CellTox Green cytotoxicity fluorescence no lower than 1. Met? Condition not met

Record "CC(C)c1ccccc1Cc1cc(C(=O)Nc2ccc(S(=O)(=O)c3ccccc3C(C)(C)C)cc2)c(O)c(O)c1O" ; criterion: CellTox Green cytotoxicity fluorescence no lower than 1. Met? Condition not met

Record O=C1CCC(N2C(=O)c3ccccc3C2=O)C(=O)N1 (stereo not drawn) [Thalidomide] ; criterion: CellTox Green cytotoxicity fluorescence no lower than 1. Met? Condition not met

Record "CN[C@@H](C)C(=O)N[C@H](C(=O)N1CCC[C@H]1C(=O)Nc1snnc1-c1ccccc1)C1CCCCC1" ; criterion: CellTox Green cytotoxicity fluorescence no lower than 1. Met? Condition met

Record "CN(C)CCCCC(=O)Nc1ccc(NC(=S)NC(=O)c2ccc(C(C)(C)C)cc2)cc1" ; criterion: CellTox Green cytotoxicity fluorescence no lower than 1. Met? Condition not met

Record "CN1CCN(CCCNc2ncc(Cl)c(-c3cc4c(C(=O)NC5CC5)cccc4s3)n2)CC1" ; criterion: CellTox Green cytotoxicity fluorescence no lower than 1. Met? Condition not met

Record "COc1ccc(CCNCc2ccc(OCc3ccc(Cl)nc3)c(OC)c2)cc1OC" ; criterion: CellTox Green cytotoxicity fluorescence no lower than 1. Met? Condition not met

Record "CCCC[C@@H](C=O)NC(=O)[C@H](CC(C)C)NC(=O)OCc1ccccc1" ; criterion: CellTox Green cytotoxicity fluorescence no lower than 1. Met? Condition not met

Record "N#Cc1ccc(-c2c(-c3ncn[nH]3)sc(N3CCOCC3)c2C#N)c(F)c1" ; criterion: CellTox Green cytotoxicity fluorescence no lower than 1. Met? Condition met

Record "C=CCc1cccc(/C=N/NC(=O)CN2CCN(Cc3ccccc3)CC2)c1O" ; criterion: CellTox Green cytotoxicity fluorescence no lower than 1. Met? Condition not met

Record "CC[C@H](NC(=O)[C@H](C)NC)C(=O)N1C[C@@H](O)C[C@H]1Cc1c(-c2[nH]c3cc(F)ccc3c2C[C@@H]2C[C@H](O)CN2C(=O)[C@H](CC)NC(=O)[C@H](C)NC)[nH]c2cc(F)ccc12" ; criterion: CellTox Green cytotoxicity fluorescence no lower than 1. Met? Condition met

Record "CCCCNc1ncc2c(-c3ccc(CN4CCN(C)CC4)cc3)cn([C@H]3CC[C@H](O)CC3)c2n1" ; criterion: CellTox Green cytotoxicity fluorescence no lower than 1. Met? Condition met

Record "CNC(=O)c1ccc(Nc2ncc(C(F)(F)F)c(NCc3nccnc3N(C)S(C)(=O)=O)n2)cc1" ; criterion: CellTox Green cytotoxicity fluorescence no lower than 1. Met? Condition not met

Reference source: the supplement of paper PMC7595190
